measured_on: Delta spike (based on S-R/Wildtype spike) (SARS-CoV-2 Delta (B.1.617.2), L452R | T478K)
recorded_endpoint: binding result

binder	observed_result
YB12-197 (antibody, V domains shown) VH: EVQLVESGGGLVQPGGSLRLSCAASGFTVSSNYMNWVRQAPGKGLEWVSVIYSGGSTFYADSVKGRFTISRDNSKNTLYLQMNSLRAEDTAVYYCARDAYNYGANWGQGTLVTVSS VL: HLVLTQSPSASASLGASVKLTCTLSSGHSNNAIAWHQQQPEKGPRYLMHLNSDGSHTKGDGIPDRFSGSSSGAERYLTISSLQSEDEAEYYCQTWGTDIHWVFGGGTKLTVR	binds
